- Tested on: ATR-driven phosphorylation of Chk1 kinase at Serine 345 in HT-29 colorectal adenocarcinoma cells
- MEASUREMENT DESCRIPTION: pCHK1 cellular assay (CHK1 p-Ser345 AlphaScreen SureFire)
- Format: cell-based
- CONDITION CONTEXT: Homo sapiens, HT-29, HT-29 cells, 4-nitroquinoline N-oxide 12 uM; read-out: Cell IC50 (pCHK1 IC50 values)
Recorded pIC50, one value per entry.
# reply with the number alone; pIC50 is -log10 of concentration in mol/L

Example results:
| COMPOUND | RESULT VALUE |
| --- | --- |
| C[C@@H]1Cc2ncnc(C3CCN(S(C)(=O)=O)CC3)c2CN1c1cc(C#N)nc2[nH]ccc12 | 6.58 |
| C[C@@H]1Cc2ncnc(N3CCC(NS(C)(=O)=O)CC3)c2CN1c1cc(Cl)nc2[nH]ccc12 | 7.89 |
| C[C@@H]1Cc2ncnc(N3CCC(S(C)(=O)=O)CC3)c2CN1c1ccnc2[nH]ccc12 [Example 8, bis(trifluoroacetate)] | 6.90 |

Summary for this compound, COC(=O)NC1[C@@H]2CC[C@H]1CN(c1ncnc3c1CN(c1cc(Cl)nc4[nH]ccc14)[C@H](C)C3)C2 (stereo partly shown) : pIC50 is 7.34

Source listed as patent US10421765B2.
